Catalogue of Ki values
biological target: hAPN (recombinant human alanine aminopeptidase, EC 3.4.11.2) (Homo sapiens, UniProt P15144); construct: gene ANPEP; commercial recombinant enzyme (R&D Systems), lyophilized powder; test: fluorogenic assay, Ala-AMC hydrolysis; Ki by Lineweaver-Burk, Dixon, Cheng-Prusoff; format: biochemical
Sequence (P15144 33-967 limits assumed): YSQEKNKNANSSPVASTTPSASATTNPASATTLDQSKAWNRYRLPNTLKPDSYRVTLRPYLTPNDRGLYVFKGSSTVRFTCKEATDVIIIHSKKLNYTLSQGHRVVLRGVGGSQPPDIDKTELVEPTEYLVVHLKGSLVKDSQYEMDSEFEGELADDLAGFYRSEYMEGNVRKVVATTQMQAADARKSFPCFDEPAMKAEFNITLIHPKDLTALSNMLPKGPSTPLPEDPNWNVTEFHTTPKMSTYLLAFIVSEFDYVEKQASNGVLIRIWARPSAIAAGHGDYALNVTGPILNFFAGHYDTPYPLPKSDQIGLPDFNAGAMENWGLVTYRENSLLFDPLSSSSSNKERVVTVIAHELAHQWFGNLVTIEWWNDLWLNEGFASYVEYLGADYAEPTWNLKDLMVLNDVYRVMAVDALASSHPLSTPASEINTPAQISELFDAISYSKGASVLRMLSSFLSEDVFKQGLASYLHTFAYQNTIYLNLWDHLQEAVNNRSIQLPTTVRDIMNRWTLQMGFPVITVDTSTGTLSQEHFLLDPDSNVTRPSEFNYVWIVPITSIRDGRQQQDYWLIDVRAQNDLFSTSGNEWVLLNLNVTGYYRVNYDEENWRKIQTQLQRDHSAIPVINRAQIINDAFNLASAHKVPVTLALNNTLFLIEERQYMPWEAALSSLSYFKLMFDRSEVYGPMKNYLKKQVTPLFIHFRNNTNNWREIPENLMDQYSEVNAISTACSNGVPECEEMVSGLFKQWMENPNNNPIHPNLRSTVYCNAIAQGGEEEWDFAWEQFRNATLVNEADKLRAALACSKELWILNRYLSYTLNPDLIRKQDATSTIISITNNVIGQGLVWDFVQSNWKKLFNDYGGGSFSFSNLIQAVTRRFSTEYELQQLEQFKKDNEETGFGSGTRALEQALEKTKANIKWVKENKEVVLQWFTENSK
READOUT NAME: Ki (µM)

| MOLECULE | ENDPOINT UNIT | EXPERIMENTAL RESULT |
| --- | --- | --- |
| NC(Cc1ccc(F)cc1)P(=O)(O)O (racemic) | µM | 4.86 |
| NC(CC(F)(F)F)P(=O)(O)O (racemic) | µM | 84.7 |
| NC(Cc1cccc(F)c1)P(=O)(O)O (racemic) | µM | 3.39 |
| NC(Cc1ccccc1F)P(=O)(O)O (racemic) | µM | 18.1 |

Hello, the source for this data is paper PMC7226027, in case you need it.
